assay: protein stability index of a GFP-peptide fusion (yeast GPS) (PSI 1-4); higher = more stable; sorted into four equal gates, so the index is relative within each strain; settings: doa10∆
Each entry below carries its recorded protein stability index.

{"columns": ["chain-sequence", "protein stability index"],
 "data": [
  ["SFLSGVKSLLSEEKIRD [SIR4]", 3.01],
  ["VIRIPMQENDKINQERL [CSI1]", 2.42],
  ["ELPLEDFKAKYCDSMGR [RPB5]", 3.31],
  ["EEIKQSARNYDKFKLNE [SMC1]", 3.25],
  ["YKMVQEQLSKQRDLYKR [SMC2]", 3.1],
  ["KTTDHLFDAAFYMKKDA [RPO31]", 3],
  ["LYVVGLFDTYHASKAIG [RRP6]", 1.91],
  ["ADNKEDVKKPFSFGTSQ [YLR335W/NUP2]", 3.42],
  ["EGRSFTKAIEDAKKEMK [YLR335W/NUP2]", 2.87],
  ["DKKEMTIYNNIREGQNQ [SIR3]", 3.21],
  ["NTFVTRLNNVFVIGEQG [RPS4A]", 3.29],
  ["KDNECSSFEENNDLESV [RRI2]", 3.13],
  ["HLLLGFQVSNVISLGPN [YJL039C/NUP192]", 1.37],
  ["AKTLIPSLNNKISDDEL [RPB4]", 2.98],
  ["ECADLWPRVASNSGVVV [RPL23A]", 2.9],
  ["DSPASNEDDLTVKLTEI [RPO31]", 2.94],
  ["TVQYVRFFWKRSTNKKS [UBP6]", 1.65],
  ["YCSGNIYDFHKMENLMR [YJL039C/NUP192]", 2.77],
  ["AALGEVASMELKPTNDM [SIR2]", 3.46],
  ["VSNSISRLGEENLPGLS [SNU114]", 1.14],
  ["LENSSRSPRVVTNALDN [NUT1]", 2.85],
  ["RRNLRYGDRMKLAKNLQ [RPO31]", 3.15],
  ["DIRDSSCQGNVIYRNSL [YMR129W/POM152]", 3.5],
  ["VEETEVPTVPPSQSEEQ [MED4]", 2.73],
  ["AMQYVCGDSIICNTLNI [SMC1]", 1.57],
  ["IKKYASVVRVLVHTQIR [RPL3]", 1.87],
  ["QDDEYVKDWLYDSRPLE [PRP8]", 3.25],
  ["LAVSTILGKNFDSVIVE [SMC1]", 2.86],
  ["QIQKNVDLLQFPWLNAI [POP3]", 2.29],
  ["ICGYTRKEGPTIYYVDS [PRE2]", 3.36]
]}

====

experiment: protein stability index of a GFP-peptide fusion (yeast GPS) (PSI 1-4); higher = more stable; sorted into four equal gates, so the index is relative within each strain; details: pdr5∆
Each entry below carries its recorded protein stability index.

{"columns": ["chain-sequence", "protein stability index"],
 "data": [
  ["IASDGSYVNYRHMALLV [RPO21]", 1.89],
  ["LPYLSDTCAVSFDAVSD [YJR042W/NUP85]", 2.63],
  ["PLKLSGEGPFTVKFKHM [YMR129W/POM152]", 2.93],
  ["TDLGKDIPFFPSSEKPN [SSN2]", 2.9],
  ["TEHVRQNAKLLANLIRD [RRP6]", 1.93],
  ["ELLEHIETIGHLITKEE [RPN5]", 3.03],
  ["SNDTTAFNDSCVNLSLF [SRB8]", 2.92]
]}

====

assay: protein stability index of a GFP-peptide fusion (yeast GPS) (PSI 1-4); higher = more stable; sorted into four equal gates, so the index is relative within each strain; conditions: san1∆

{"columns": ["chain-sequence", "protein stability index"],
 "data": [
  ["TGQNFLTSNISSLVRSC [REC8]", 2.54],
  ["VKEESQPDENTKEMDEV [SWI3]", 3.07],
  ["LLERTREIHNEAESQLR [FAS2]", 2.21],
  ["LVKDRKFLREVFVDGEA [RPO21]", 2.62],
  ["SLILKESGSTPISISNA [YAR002W/NUP60]", 1.45],
  ["GRETILSNFNADINLEE [SIR3]", 2.85],
  ["QRKKQSDVLRFLQRVRV [RPL15A]", 1.78],
  ["YVSALKRINKFLDSVHK [POP7]", 2],
  ["GGHSLEEISFSLSEGCD [PRP28]", 1.93],
  ["NTLLISGPFKVNGVPLR [RPL6A]", 2.28],
  ["NNMNVNMNLNPQMFLNQ [GAL11]", 2.46],
  ["NKYANNDFANNLPKEGD [CSL4]", 2.9],
  ["SPELKADLRPLQIKSIR [RPS7B]", 2.67],
  ["TRQASDLASSKEVLAKI [RPN5]", 2.99],
  ["TIFKSGEIDFIKNIGKS [YML103C/NUP188]", 1.92],
  ["IQEIKESVELPLTHPEL [RPT2]", 2.74],
  ["SFNMAQIPQQLYQSLTP [SNF5]", 2.14],
  ["MSKITSSQVREHVKELL [RPL1A]", 2.45],
  ["EVLNRVASRHPSESEHP [YDL116W/NUP84]", 2.99],
  ["NTCTISTSKFESQYPIV [SWP82]", 2.97],
  ["RHFGMGPHKGKAPRILS [RPL18A]", 3.09],
  ["ALYPQEARLRNLTYSSG [RPB2]", 2.75],
  ["EKSRISERDSKDRYING [YMR129W/POM152]", 3.04],
  ["NTKEEFAAAPNDTSSGT [SNF5]", 2.96],
  ["HIQVNQAPKQRRRTYRA [RPL17A]", 2.38],
  ["LSTDATSADLKSKAEEL [UBP6]", 2.95],
  ["VNRLLSVIPLKGRYAPE [RRP4]", 2.33],
  ["HPLHELIIQYPPNNARR [ISW2]", 2.73],
  ["LVESVDRFKPNLDIAKD [MED4]", 3.15],
  ["KLNTFENDLLQEFDSEL [SMC3]", 3.03],
  ["DTFVHVTDLSGKETIAR [RPS14B]", 2.83],
  ["LAVSTILGKNFDSVIVE [SMC1]", 2.44],
  ["ANAAKRAEAKAQGVAVQ [RPL21A]", 2.06],
  ["PSLRDRRERRLIFGTIA [RPT3]", 1.63],
  ["GRPRYDTFGEGIIITDQ [BRR2]", 2.62],
  ["NKYPELLGKDNEDDALI [AAR2]", 3.33],
  ["AFHTAVLRLNAIPLLKV [NUT1]", 2.35],
  ["KSHVLLATPVQFELLSR [BRR2]", 2.02],
  ["ISDIPYVISLSYTDAQD [YMR129W/POM152]", 2.5],
  ["VKGKNCVVLGCERRSTL [PRE6]", 2.84],
  ["ILEDYCYFRDFEYCRID [ISW2]", 1.4],
  ["REDEFGSIPSLTTQFVT [YDL088C/ASM4]", 3.06],
  ["FIFQIIEITNSNDLCSQ [SRB8]", 1.71],
  ["KQTGRDQMVVGWYHSHP [RPN11]", 2.4],
  ["DLSGADIQAMCTEAGLL [RPT2]", 3.46],
  ["RRHRNPDLQFIVISLKN [SMC1]", 1.73],
  ["VSALDKCIKYSEKLITK [ECM29]", 1.94],
  ["AAAYSHELPRYGITHGL [RPL5]", 2.98],
  ["VIDIGASGCNVTPIIDG [ARP7]", 2.93],
  ["NAYGFIEWCSRCNDNLM [YJL039C/NUP192]", 2.75],
  ["NLSIDEVAVPDRVAKVL [RPO31]", 3.11],
  ["ELVFSKGVYLILSEILC [YML103C/NUP188]", 1.71],
  ["RRLAFLGIKVAELTGDS [BRR2]", 2.71],
  ["PQWKRHLEEYGYLIQVL [YCS4]", 2.02],
  ["VLSDDAKKLSSFDFGNE [ARP9]", 2.86],
  ["DENAPVATNANATTDQE [PRE10]", 3.4],
  ["SYVEPVLVASAKGLQTV [RPL31A]", 2.23],
  ["RYENNDDDERVEYNLFT [BRN1]", 3.07],
  ["HKVSSQSTNLNRSAKNS [YCS4]", 2.38],
  ["LKKLKAMNDACYEKVLE [BRR2]", 3.12]
]}
